Data origin: paper PMC2920070

Biological target: NR1/NR2B (Rattus norvegicus, UniProt P35439+Q00960)
Sequence (Q00960 27-1482, other chains not shown): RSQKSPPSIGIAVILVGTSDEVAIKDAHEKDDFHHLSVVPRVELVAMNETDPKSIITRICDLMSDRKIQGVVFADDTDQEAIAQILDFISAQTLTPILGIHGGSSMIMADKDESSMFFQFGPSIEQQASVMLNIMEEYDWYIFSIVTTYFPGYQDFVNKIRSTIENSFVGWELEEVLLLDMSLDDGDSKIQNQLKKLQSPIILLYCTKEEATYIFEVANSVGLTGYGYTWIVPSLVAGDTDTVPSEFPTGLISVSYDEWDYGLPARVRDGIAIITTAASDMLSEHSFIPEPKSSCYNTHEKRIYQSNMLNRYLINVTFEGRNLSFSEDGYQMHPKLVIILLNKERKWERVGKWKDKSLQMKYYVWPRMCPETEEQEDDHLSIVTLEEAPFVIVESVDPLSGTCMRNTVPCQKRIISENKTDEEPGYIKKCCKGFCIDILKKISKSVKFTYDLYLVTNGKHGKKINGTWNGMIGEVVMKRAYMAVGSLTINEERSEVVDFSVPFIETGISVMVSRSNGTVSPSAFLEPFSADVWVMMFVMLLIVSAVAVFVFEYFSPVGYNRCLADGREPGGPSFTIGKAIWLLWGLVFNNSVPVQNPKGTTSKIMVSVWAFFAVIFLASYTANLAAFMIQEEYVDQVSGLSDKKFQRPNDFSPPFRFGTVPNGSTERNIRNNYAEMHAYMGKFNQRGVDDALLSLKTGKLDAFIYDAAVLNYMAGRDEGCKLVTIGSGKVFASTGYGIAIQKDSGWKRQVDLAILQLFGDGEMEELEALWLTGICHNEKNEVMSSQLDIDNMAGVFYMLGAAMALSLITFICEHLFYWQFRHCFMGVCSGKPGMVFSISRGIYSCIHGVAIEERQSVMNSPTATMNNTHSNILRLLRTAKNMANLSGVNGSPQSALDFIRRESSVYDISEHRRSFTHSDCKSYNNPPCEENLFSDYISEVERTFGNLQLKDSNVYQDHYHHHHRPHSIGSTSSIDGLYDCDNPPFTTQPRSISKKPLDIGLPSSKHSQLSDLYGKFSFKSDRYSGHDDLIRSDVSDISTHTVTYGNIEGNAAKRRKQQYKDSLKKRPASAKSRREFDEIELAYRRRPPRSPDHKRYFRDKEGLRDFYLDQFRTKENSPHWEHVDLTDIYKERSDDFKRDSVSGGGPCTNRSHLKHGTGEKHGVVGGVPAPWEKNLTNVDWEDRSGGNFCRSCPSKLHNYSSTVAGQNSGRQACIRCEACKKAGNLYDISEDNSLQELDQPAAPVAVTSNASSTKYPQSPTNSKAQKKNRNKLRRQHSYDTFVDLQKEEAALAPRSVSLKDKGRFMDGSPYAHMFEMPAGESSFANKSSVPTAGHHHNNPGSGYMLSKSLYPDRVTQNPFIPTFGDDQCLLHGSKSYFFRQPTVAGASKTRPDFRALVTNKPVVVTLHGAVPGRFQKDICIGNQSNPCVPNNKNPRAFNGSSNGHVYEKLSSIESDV
Assay: Two-electrode voltage-clamp, recombinant NR1/NR2B in Xenopus oocytes
outcomeMeasure: IC50

INSERT INTO measurements (compoundstring, outcomemeasure, result) VALUES
  ('COc1ccc2nc(/C=C/c3ccc(OC(C)=O)c(OC(C)=O)c3)n(-c3ccc(C(=O)O)cc3)c(=O)c2c1', 'IC50', '> 300 µM');

====

Target: UniProt:P19490
Sequence (P19490 19-907): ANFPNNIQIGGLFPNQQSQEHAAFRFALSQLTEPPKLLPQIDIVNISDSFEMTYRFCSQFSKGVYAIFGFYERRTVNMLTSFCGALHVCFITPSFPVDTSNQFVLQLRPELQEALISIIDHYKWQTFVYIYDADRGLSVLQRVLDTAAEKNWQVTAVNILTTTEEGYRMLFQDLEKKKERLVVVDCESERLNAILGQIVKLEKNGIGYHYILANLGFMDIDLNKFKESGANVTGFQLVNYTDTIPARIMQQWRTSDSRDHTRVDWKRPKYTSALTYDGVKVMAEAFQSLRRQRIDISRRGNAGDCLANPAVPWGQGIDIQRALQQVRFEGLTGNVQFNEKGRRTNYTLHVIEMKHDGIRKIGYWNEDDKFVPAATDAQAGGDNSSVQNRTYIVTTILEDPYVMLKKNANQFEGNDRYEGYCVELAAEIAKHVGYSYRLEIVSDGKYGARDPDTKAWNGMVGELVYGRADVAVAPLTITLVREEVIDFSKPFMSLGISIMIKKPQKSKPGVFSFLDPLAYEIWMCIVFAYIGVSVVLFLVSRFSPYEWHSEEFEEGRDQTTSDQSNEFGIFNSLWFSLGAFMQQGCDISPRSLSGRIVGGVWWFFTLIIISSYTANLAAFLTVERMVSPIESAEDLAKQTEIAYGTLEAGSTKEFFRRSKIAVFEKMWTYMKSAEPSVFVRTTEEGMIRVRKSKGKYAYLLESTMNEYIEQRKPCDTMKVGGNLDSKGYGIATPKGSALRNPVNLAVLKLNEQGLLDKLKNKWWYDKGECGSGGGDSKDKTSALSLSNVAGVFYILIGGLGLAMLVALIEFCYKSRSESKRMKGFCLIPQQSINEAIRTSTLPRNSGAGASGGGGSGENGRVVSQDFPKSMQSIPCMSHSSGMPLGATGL
Assay: Two-electrode voltage-clamp, recombinant GluR1
pIC50: −log10 of the molar value.
outcomeMeasure: pIC50

INSERT INTO measurements (compoundstring, testedon, outcomemeasure, result) VALUES
  ('COc1ccc2nc(/C=C/c3ccc(OC(C)=O)c(OC(C)=O)c3)n(-c3ccc(C(=O)O)cc3)c(=O)c2c1', 'UniProt:P19490', 'pIC50', '< 3.52');

====

Recorded GluR1/NR2D: (IC50 GluR1)/(IC50 NR2D) for the following compounds
Target: NR1/NR2D (Rattus norvegicus, UniProt P35439+Q62645)
Sequence (Q62645 28-1323, other chains not shown): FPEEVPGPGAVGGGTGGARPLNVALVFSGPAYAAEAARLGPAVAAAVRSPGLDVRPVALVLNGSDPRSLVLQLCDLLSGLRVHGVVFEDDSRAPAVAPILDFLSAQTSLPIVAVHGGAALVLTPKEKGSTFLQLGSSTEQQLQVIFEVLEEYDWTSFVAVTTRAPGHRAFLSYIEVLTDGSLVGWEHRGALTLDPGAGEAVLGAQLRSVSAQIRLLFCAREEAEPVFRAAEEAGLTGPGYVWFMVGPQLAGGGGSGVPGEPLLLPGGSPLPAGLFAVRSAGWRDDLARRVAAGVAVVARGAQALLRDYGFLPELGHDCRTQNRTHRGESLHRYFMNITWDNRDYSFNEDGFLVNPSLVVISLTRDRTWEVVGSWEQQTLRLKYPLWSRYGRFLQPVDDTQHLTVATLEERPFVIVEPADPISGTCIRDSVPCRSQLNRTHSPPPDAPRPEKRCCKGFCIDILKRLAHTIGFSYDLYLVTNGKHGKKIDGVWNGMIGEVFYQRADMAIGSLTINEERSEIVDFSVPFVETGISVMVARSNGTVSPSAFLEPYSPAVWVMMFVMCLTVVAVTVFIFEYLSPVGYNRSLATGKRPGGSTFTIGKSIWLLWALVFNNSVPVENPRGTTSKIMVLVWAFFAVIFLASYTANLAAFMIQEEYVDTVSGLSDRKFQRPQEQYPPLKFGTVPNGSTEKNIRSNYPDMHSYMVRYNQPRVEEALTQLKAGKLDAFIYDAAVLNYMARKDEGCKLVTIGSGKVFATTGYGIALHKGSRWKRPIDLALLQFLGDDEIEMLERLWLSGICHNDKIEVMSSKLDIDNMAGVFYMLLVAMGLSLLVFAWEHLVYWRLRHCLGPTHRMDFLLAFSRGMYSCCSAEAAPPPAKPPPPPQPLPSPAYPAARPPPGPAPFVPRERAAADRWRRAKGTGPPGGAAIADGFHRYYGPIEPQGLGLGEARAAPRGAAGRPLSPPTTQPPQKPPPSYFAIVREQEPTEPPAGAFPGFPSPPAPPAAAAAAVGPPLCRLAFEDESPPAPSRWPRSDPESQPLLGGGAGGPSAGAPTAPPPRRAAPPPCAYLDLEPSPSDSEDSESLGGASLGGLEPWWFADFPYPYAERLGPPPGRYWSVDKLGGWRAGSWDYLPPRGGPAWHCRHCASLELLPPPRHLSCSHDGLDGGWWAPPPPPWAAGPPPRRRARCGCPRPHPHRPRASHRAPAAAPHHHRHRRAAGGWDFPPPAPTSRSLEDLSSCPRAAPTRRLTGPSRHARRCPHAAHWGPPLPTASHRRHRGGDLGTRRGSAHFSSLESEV
Assay: Two-electrode voltage-clamp, recombinant NR1/NR2D in Xenopus oocytes
Type: cell-based
Details: selectivity ratio
outcomeMeasure: GluR1/NR2D: (IC50 GluR1)/(IC50 NR2D)

INSERT INTO results (compoundstring, testedon, outcomemeasure, result) VALUES
  ('O=C(O)c1ccc(-n2c(/C=C/c3ccccc3C(F)(F)F)nc3ccccc3c2=O)cc1', 'NR1/NR2D (Rattus norvegicus, UniProt P35439+Q62645)', 'GluR1/NR2D: (IC50 GluR1)/(IC50 NR2D)', '>10'),
  ('COc1ccc2nc(/C=C/c3ccc([N+](=O)[O-])cc3)n(-c3ccc(C(=O)O)cc3)c(=O)c2c1', 'NR1/NR2D (Rattus norvegicus, UniProt P35439+Q62645)', 'GluR1/NR2D: (IC50 GluR1)/(IC50 NR2D)', '>42'),
  ('Cc1ccc(/C=C/c2nc3ccccc3c(=O)n2-c2ccc(C(=O)O)cc2)cc1', 'NR1/NR2D (Rattus norvegicus, UniProt P35439+Q62645)', 'GluR1/NR2D: (IC50 GluR1)/(IC50 NR2D)', '>17'),
  ('O=C(O)c1ccc(-n2c(/C=C/c3ccc4c(c3)OCCO4)nc3ccccc3c2=O)cc1', 'NR1/NR2D (Rattus norvegicus, UniProt P35439+Q62645)', 'GluR1/NR2D: (IC50 GluR1)/(IC50 NR2D)', '>18'),
  ('COc1ccc2nc(/C=C/c3cccc(C(=O)O)c3)n(-c3ccc(C(=O)O)cc3)c(=O)c2c1', 'NR1/NR2D (Rattus norvegicus, UniProt P35439+Q62645)', 'GluR1/NR2D: (IC50 GluR1)/(IC50 NR2D)', '>2'),
  ('O=C(O)c1ccc(-n2c(/C=C/c3cccc([N+](=O)[O-])c3)nc3cccc(Cl)c3c2=O)cc1', 'NR1/NR2D (Rattus norvegicus, UniProt P35439+Q62645)', 'GluR1/NR2D: (IC50 GluR1)/(IC50 NR2D)', '>20'),
  ('O=C(O)c1ccc(-n2c(/C=C/c3cccc([N+](=O)[O-])c3)nc3cc4c(cc3c2=O)OCO4)cc1', 'NR1/NR2D (Rattus norvegicus, UniProt P35439+Q62645)', 'GluR1/NR2D: (IC50 GluR1)/(IC50 NR2D)', '>8'),
  ('N#Cc1ccc(/C=C/c2nc3ccccc3c(=O)n2-c2ccc(C(=O)O)cc2)cc1', 'NR1/NR2D (Rattus norvegicus, UniProt P35439+Q62645)', 'GluR1/NR2D: (IC50 GluR1)/(IC50 NR2D)', '>9');
